Assay system 72 kDa type IV collagenase (Homo sapiens); read-out recorded as pIC50.
pIC50: −log10 of the molar value.
measurementLabel: pIC50

# compound, measurementTarget, measurementLabel, observedResult
measured = [
    ("CN1C(=O)N(CC(CS(=O)(=O)c2ccc(Oc3ccc(Cl)cc3)cc2)N(O)C=O)C(=O)C1(C)C (centres undefined)", "72 kDa type IV collagenase (Homo sapiens)", "pIC50", 9.14),
    ("CC1(C)NC(=O)N(CC(CS(=O)(=O)c2ccc(Oc3ccc(OC(F)(F)F)cc3)cc2)N(O)C=O)C1=O (centres undefined)", "72 kDa type IV collagenase (Homo sapiens)", "pIC50", 8.89),
    ("O=CN(O)C(CO)CS(=O)(=O)c1ccc(Oc2ccc(OC(F)(F)F)cc2)cc1 (centres undefined)", "72 kDa type IV collagenase (Homo sapiens)", "pIC50", 9.46),
    ("CC1(C)OCC(C[C@@H](CS(=O)(=O)c2ccc(Oc3ccc(OC(F)(F)F)cc3)cc2)N(O)C=O)O1 (some centres undefined)", "72 kDa type IV collagenase (Homo sapiens)", "pIC50", 8.82),
]
